ASSAY SYSTEM: T1, recombinant human lymphotoxin-α homotrimer (human LTα3) (human, UniProt P01374 35-205)
T1 construct: Coated on plates in the ELISAs; also called rhLTα; lymphotoxin-α3 trimer
T1 sequence (looked up): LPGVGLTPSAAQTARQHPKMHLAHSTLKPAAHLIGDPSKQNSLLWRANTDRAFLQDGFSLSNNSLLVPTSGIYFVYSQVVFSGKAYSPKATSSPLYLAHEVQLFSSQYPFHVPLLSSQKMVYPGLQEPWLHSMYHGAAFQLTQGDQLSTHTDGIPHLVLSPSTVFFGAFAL
ASSAY NAME: phage competitive ELISA: rhLTα in solution competes with plate-coated LTα
ASSAY ENDPOINT: IC50 (nM)

BINDER	UNIT INFO	ASSAY VALUE
phage-displayed 2C8 Fab clone G12 (Fab, V domains shown) VH: EVQLVESGGGLVQPGGSLRLSCAASGYTFTSYVIHWVRQAPGKGLEWVGYNNPYNDGTNYNEKFKGRATISSDKSKNTAYLQMNSLRAEDTAVYYCSRPTMLPWFAYWGQGTLVTVSS VL: DIQMTQSPSSLSASVGDRVTITCRASQAVSSAVAWYQQKPGKAPKLQIYSASHRYTGVPSRFSGSGSGTDFTLTISSLQPEDFATYYCQKTFSTPWTFGQGTKVEIKR	nM	5.34
phage-displayed 2C8 Fab clone H9 (Fab, V domains shown) VH: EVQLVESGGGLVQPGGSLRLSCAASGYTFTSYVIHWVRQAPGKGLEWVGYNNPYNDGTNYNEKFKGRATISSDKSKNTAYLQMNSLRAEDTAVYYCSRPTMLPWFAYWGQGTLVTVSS VL: DIQMTQSPSSLSASVGDRVTITCRASQAVSSAVAWYQQKPGKAPKLQIYSASHRYTGVPSRFSGSGSGTDFTLTISSLQPEDFATYYCQQHYYTPWTFGQGTKVEIKR	nM	3.8
phage-displayed 2C8 Fab clone C12 (Fab, V domains shown) VH: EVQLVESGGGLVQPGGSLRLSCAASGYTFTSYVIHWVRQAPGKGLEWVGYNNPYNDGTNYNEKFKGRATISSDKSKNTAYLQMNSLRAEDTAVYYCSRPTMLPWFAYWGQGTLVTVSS VL: DIQMTQSPSSLSASVGDRVTITCRASQAVSSAVAWYQQKPGKAPKLQIYSASHRYTGVPSRFSGSGSGTDFTLTISSLQPEDFATYYCQEHYSTPWTFGQGTKVEIKR	nM	3.41

Where these numbers come from: patent US20130011412A1
